B1: ZNF449 (parent)
chain: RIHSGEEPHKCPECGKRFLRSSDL

Variants of: B1
Assay: protein stability index of a GFP-peptide fusion (GPS, HEK-293T) (PSI 1-6); higher = more stable;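 also: lentivirally expressed fusions sorted by FACS into six bins by GFP to DsRed ratio, PSI derived from sequencing read proportions per bin multiplied by bin number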
Conditions: c terminus: a fixed tail appended
Can you tell me protein stability index for the items I'm about to list?
Respond numerically, and do not add a unit to the figure.

If you can, please state the reported protein stability index value of D23S .
2.46

If you can, please state the reported protein stability index value of R1C .
5.29

If you can, please state the reported protein stability index value of C14I .
5

If you can, please state the reported protein stability index value of S21F .
2.15

If you can, please state the reported protein stability index value of S21H .
3.44

If you can, please state the reported protein stability index value of S21Y .
3.22

If you can, please state the reported protein stability index value of K16F .
2.55

If you can, please state the reported protein stability index value of P12I .
2.94

If you can, please state the reported protein stability index value of K10E .
3.57
